# assayDetails: APR_HepG2_StressKinase_72hr: Apredica 72-hour HepG2 Assay for Stress Kinase (AID 2282921)
# testContext: HepG2 stress kinase (phospho-c-Jun) imaging, actives raise or lower the signal
Calls of active or inactive are those of the source. Rule for the calls: active = hit-call score of the fitted dose curve at least 0.9, where 1 is the maximum; inactive = score below 0.9.
Please state which outcome applies, choosing from active, inactive

CCCCCCCCCCCCCCO
inactive
CCCCCCOC(=O)CC(CC(=O)OCCCCCC)(OC(=O)CCC)C(=O)OCCCCCC
inactive
C=CCc1cc(S(=O)(=O)c2ccc(O)c(CC=C)c2)ccc1O
inactive
O=C(O)c1cccc(C[C@@H]2COc3ccc(OCc4nc5cc(F)ccc5s4)cc3[C@@H]2O)c1
active
COc1cc(C(C)C)c2c(c1)S(=O)(=O)N(COc1cc(=O)n3cccc(OCCN4CCCCC4)c3n1)C2=O
inactive

In: Tell me the recorded outcome of this test for "O=C(O)c1cccc(C(=O)O)c1" .
Out: inactive

In: Could you do the same for "O=c1[nH]cnc2c1ncn2[C@H]1CC[C@@H](CO)O1" , please?
Out: inactive

In: Follow-up entry: "CCCCCOC(C)=O"
Out: inactive

In: What do you get for "O=C(O)[C@H](O)[C@@H](O)C(=O)O" ?
Out: inactive

In: Another compound to check: "OC(Cn1cncn1)(Cn1cncn1)c1ccc(F)cc1F"
Out: inactive

In: How about this compound: "OCCNCCO"
Out: inactive

In: Request: "CCc1ccc(O)c(C(C)(C)C)c1"
Out: active

In: How about "NC(=O)N1c2ccccc2C=Cc2ccccc21" ?
Out: inactive

In: Also need "CC(C)c1nnc2ccc(-c3ocnc3-c3cc(F)ccc3F)cn12" , thanks.
Out: inactive

In: Quick one: "C=CN1CCCC1=O"
Out: inactive

In: Please give the result for "COS(C)(=O)=O" too.
Out: inactive

In: # iterate: "O=C1CN(N=Cc2ccc([N+](=O)[O-])o2)C(=O)N1"
Out: inactive

In: Note, next up: "COCc1nnc(-c2ccc[n+]([O-])c2)n1-c1c(Cl)c(Cl)cc2[nH]c(=O)c(=O)[nH]c12"
Out: inactive

====

# assayDetails: BSK_3C_SRB: Viability Assessment in the BioMAP Diversity Plus: 3C Assay (AID 2283023);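 note: cells read 24 h after compound dosing; fitted both ways against DMSO so a hit may be signal rise or drop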
# testContext: primary human endothelial cells (HUVEC)
Activity calls are given as the source filed them. Rule for the calls: active = hit-call score of the fitted dose curve at least 0.9, where 1 is the maximum; inactive = score below 0.9.
Return exactly one item of active, inactive

Answered cases to consult:
O=C1CN(N=Cc2ccc([N+](=O)[O-])o2)C(=O)N1
inactive
FC(F)(F)COC(OCC(F)(F)F)OCC(F)(F)F
inactive
C=CN1CCCC1=O
inactive
Cn1cc[nH]c1=S
inactive
C[C@]12C=CC(=O)C=C1CC[C@H]1[C@@H]3C[C@@H](O)[C@](O)(C(=O)CO)[C@@]3(C)C[C@H](O)[C@@]12F
inactive

In: What outcome does the record of this test show for "NCC(F)(F)C(F)(F)C(F)(F)C(F)(F)F" ?
Out: inactive

In: Field entry: FC(F)C(F)(F)COCC1CO1 (stereo unspecified)
Out: inactive

In: Repeat with "CCCc1ccccc1"
Out: inactive

In: Entry CC(C)CC(C)O (stereo unspecified) please
Out: inactive

In: Check "O=C(O)c1cccc(C[C@@H]2COc3ccc(OCc4nc5cc(F)ccc5s4)cc3[C@@H]2O)c1" too.
Out: inactive

In: Entry to check: "CCN(CC)C(=S)SSC(=S)N(CC)CC"
Out: active

In: How about this compound: "CCc1ccc(O)c(C(C)(C)C)c1"
Out: active

In: Continue with "Cn1c(=O)c2[nH]cnc2n(C)c1=O"
Out: inactive

In: Now the same for "OCc1c[nH]c2ccccc12"
Out: active

In: Similarly, "NC(=O)NN=Cc1ccc([N+](=O)[O-])o1" ?
Out: inactive

====

# assayDetails: CEETOX_H295R_ESTRADIOL: CeeTox H295R High-throughput Steroidogenesis Assay for Estradiol (AID 2283440);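 note: estradiol secreted into medium quantified by LC-MS/MS after dansyl derivatisation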
# testContext: actives raise or lower the signal
The source made the active and inactive calls. Rule for the calls: active = hit-call score of the fitted dose curve at least 0.9, where 1 is the maximum; inactive = score below 0.9.
Output constraint: value belongs to active, inactive

CCN(CC)C(=S)SSC(=S)N(CC)CC
inactive
C=CCc1cc(S(=O)(=O)c2ccc(O)c(CC=C)c2)ccc1O
inactive
CCn1nc(C)c2c1C(=O)NCC(c1ccc(O)cc1)=N2
active
CCOc1ccc2[nH]cc(C(=O)NCc3ccccc3)c(=O)c2n1
inactive
C[C@@H](Oc1ccc(CNC(=O)c2cccnc2Oc2ccc3c(c2)OCO3)c(F)c1)C(=O)O
inactive

In: Look up the recorded call for "CC[C@H](C)C(=O)O[C@H]1C[C@H](O)C=C2C=C[C@H](C)[C@H](CC[C@@H](O)C[C@@H](O)CC(=O)O)[C@H]21" in this test.
Out: inactive

In: // next record CCCCC(CC)C(=O)OCCOCCOCCOC(=O)C(CC)CCCC (centres undefined)
Out: inactive

In: Same lookup for "CCCOc1ccc(S(=O)(=O)N2CCN(CC)CC2)cc1-c1nc2c(CC)n(Cc3ccccn3)nc2c(=O)[nH]1" , please.
Out: inactive

In: Please give the result for CCCCCCCC1CCC(=O)O1 (centres undefined) too.
Out: inactive

====

AC50 values by entry
# tgt: Cytochrome P450 2C19 (Homo sapiens) (UniProt P33261)
# assayDetails: NVS_ADME_hCYP2C19: NovaScreen (NVS) CYP450-related Enzyme Activity (ADME) Assay for human CYP2C19 (AID 2283113);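 note: potency for inhibition seen as loss of fluorescent signal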
# Procedure: NVS_ADME_hCYP2C19 is a biochemical, single-readout assay that uses extracted gene-proteins from insect cells in a cell-free assay. Measurements were taken 1 hour after chemical dosing in a 96-well plate.NVS_ADME_hCYP2C19 is one of one assay component(s) measured or calculated from the NVS_ADME_hCYP2C19 assay. […] This assay endpoint, NVS_ADME_hCYP2C19, was analyzed in the positive analysis fitting direction relative to Acetonitrile as the negative control and baseline of activity. […]
Records with an inconclusive call do not appear. Calls of active or inactive are those of the source. Rule for the calls: active = hit-call score of the fitted dose curve at least 0.9, where 1 is the maximum; inconclusive = response in the unintended direction; inactive = score below 0.9.

Consider the following illustrative entries.
CCCCCCOC(=O)CC(CC(=O)OCCCCCC)(OC(=O)CCC)C(=O)OCCCCCC
2.71 µM (active)
CCCCCCCCCC
5.72 µM (active)
COCc1nnc(-c2ccc[n+]([O-])c2)n1-c1c(Cl)c(Cl)cc2[nH]c(=O)c(=O)[nH]c12
4.13 µM (active)

In: What value of AC50 has been reported for the following compound? "S=P(N1CC1)(N1CC1)N1CC1"
Out: 5.2 µM (active)

In: Please answer likewise for "Cc1nccn1-c1ccc(Sc2cccc(C3(C(N)=O)CCOCC3)c2)cc1"
Out: 5.95 µM (active)

In: Another compound: "C=CCc1cc(S(=O)(=O)c2ccc(O)c(CC=C)c2)ccc1O"
Out: 0.164 µM (active)

====

# assayDetails: CCTE_Padilla_ZF_Score.Swim_bladder: CCTE's 144 Hour Post-fertilization zebrafish Assay Score for Swim Bladder Malformation, Padilla Lab (AID 2284408)
Calls of active or inactive are those of the source. Rule for the calls: active = hit-call score of the fitted dose curve at least 0.9, where 1 is the maximum; inactive = score below 0.9.
Parameter call: string, one of TRUE (active), FALSE (inactive)

Below are worked cases with known answers.
OCCC(F)(F)C(F)(F)C(F)(F)C(F)(F)F
FALSE
C[Si](C)(C)C(F)(F)C(F)(F)C(F)(F)F
FALSE

In: # fetch the recorded call for "FC(F)=C(F)C(F)(F)C(F)(F)C(F)(F)C(F)(F)C(F)(F)C(F)(F)F" here
Out: FALSE

In: Here is the next molecule: "O=C(Cl)C(F)(F)C(F)(F)C(F)(F)C(=O)Cl"
Out: FALSE

In: Now this one: "OC(O)(C(F)C(O)(O)C(F)(F)F)C(F)(F)F"
Out: TRUE

====

# Read-out: Cytochrome P450 7A1 (Homo sapiens)
# assayDetails: LTEA_HepaRG_CYP7A1: Life Technologies and Expression Analysis (LTEA) Assay for Cytochrome P450 7A1 (CYP7A1) using HepaRG (AID 2283496)
# testContext: mRNA level, 48 h; actives raise or lower the signal
Activity calls are given as the source filed them. The calls were made as follows: active = hit-call score of the fitted dose curve at least 0.9, where 1 is the maximum; inactive = score below 0.9.
metricName: AC50

// known answers, use as guide
CC(C)c1nnc2ccc(-c3ocnc3-c3cc(F)ccc3F)cn12
25.2 µM (active)
CCc1cccc(CC)c1N
inactive
CCCc1ccccc1
inactive
CCCCCCCCN(C)C
inactive
OCc1ccccc1
inactive
COCc1nnc(-c2ccc[n+]([O-])c2)n1-c1c(Cl)c(Cl)cc2[nH]c(=O)c(=O)[nH]c12
inactive
Cc1ncc([C@@H](CCCCCCc2ccc3c(n2)NCCC3)CC(=O)O)cn1
inactive
O=C(NO)C1(NS(=O)(=O)c2ccc(Oc3ccc(F)cc3)cc2)CCOCC1
inactive

In: # lookup: AC50 of "CCc1ccc(O)c(C(C)(C)C)c1"
Out: inactive

In: Entry to check: "CCCCN1C(=O)[C@@H]([C@H](O)C2CCCCC2)NC(=O)C12CCN(Cc1ccc(Oc3ccc(C(=O)O)cc3)cc1)CC2"
Out: 2.15 µM (active)

In: Do the same for "CCCCCCCCCC" please
Out: inactive

In: And the next one, "CCCCCCOC(=O)CC(CC(=O)OCCCCCC)(OC(=O)CCC)C(=O)OCCCCCC" ?
Out: inactive
